Give measured MIC for each item. Keep answers brief.
tested on: HeLa; assay: Minimum inhibitory concentration (MIC) required to reduce virus-induced cytopathogenicity by 50% against Coxsackie virus B4 in HeLa cells; assay type: functional; details: Homo sapiens

IN: # lookup: MIC of `O=c1ccn([C@@H]2O[C@H](CO)[C@H](O)[C@@H]2O)c(=O)[nH]1`
OUT: > 400 µg/mL

IN: Also `Nc1ccn([C@H]2O[C@H](CO)[C@H](O)[C@@H]2O)c(=O)n1` , if possible.
OUT: > 400 µg/mL

IN: Also `Nc1nccc2c1ncn2[C@@H]1C[C@H](CO)[C@@H](O)[C@H]1O` , if possible.
OUT: > 400 µg/mL

IN: Also `NC(=O)c1ncn([C@@H]2O[C@H](CO)[C@@H](O)[C@H]2O)n1` , if possible.
OUT: 70 µg/mL

IN: Also `Nc1ccn([C@@H]2O[C@H](CO)[C@H](O)[C@@H]2O)c(=O)n1` , if possible.
OUT: > 200 µg/mL

For each entry beneath this line, provide reported MIC.
1. Cc1cn([C@H]2O[C@H](CO)[C@H](O)[C@@H]2O)c(=O)[nH]c1=O
2. O=c1ccn([C@H]2O[C@H](CO)[C@H](O)[C@@H]2O)c(=O)[nH]1
3. Nc1nc2c(ncn2[C@@H]2O[C@H](CO)[C@H](O)[C@@H]2O)c(=O)[nH]1
4. Cc1cn([C@@H]2O[C@H](CO)[C@H](O)[C@@H]2O)c(=O)[nH]c1=O
5. Nc1ncnc2c1ccn2[C@@H]1O[C@H](CO)[C@@H](O)[C@H]1O
6. Nc1nc2c(ncn2[C@H]2O[C@H](CO)[C@H](O)[C@@H]2O)c(=O)[nH]1
7. Nc1ncnc2c1ncn2[C@@H]1O[C@H](CO)[C@H](O)[C@@H]1O (stereo in doubt; 8)

OUT:
> 400 µg/mL
> 400 µg/mL
> 400 µg/mL
> 400 µg/mL
0.2 µg/mL
> 400 µg/mL
> 400 µg/mL
